Test: Metabolic stability on liver S9 of rat; further: time not given here
Settings: rat liver S9, test compound 1 μM, 37° C.

{"COMPOUND": "CCCCCCCCOC(=O)CSc1nc(N)c2nc(O)n(Cc3ccccc3)c2n1", "Residual rate / %": 3}
{"COMPOUND": "CCCCOc1nc(N)c2nc(O)n(Cc3ccc(CC(=O)OC)o3)c2n1", "Residual rate / %": 2}
{"COMPOUND": "COC(=O)COc1nc(N)c2nc(O)n(Cc3ccccc3)c2n1", "Residual rate / %": 2}
{"COMPOUND": "CCCCOc1nc(N)c2nc(O)n(Cc3ccc(CC(=O)OCCN4CCOCC4)cc3)c2n1", "Residual rate / %": 0}
{"COMPOUND": "COCCOC(=O)CSc1nc(N)c2nc(O)n(Cc3ccccc3)c2n1", "Residual rate / %": 0}
{"COMPOUND": "CCCCOc1nc(N)c2nc(O)n(Cc3ccc(OC4CCOC4=O)cc3)c2n1 (stereo not drawn)", "Residual rate / %": 2}
{"COMPOUND": "COC(=O)Cc1ccc(CSc2nc(N)c3nc(O)n(Cc4ccccc4)c3n2)cc1", "Residual rate / %": 3}
{"COMPOUND": "Nc1nc(SC2CCOC2=O)nc2c1nc(O)n2Cc1ccccc1 (stereo not drawn)", "Residual rate / %": 7}
{"COMPOUND": "Nc1nc(SCC(=O)OCC(F)(F)F)nc2c1nc(O)n2Cc1ccccc1", "Residual rate / %": 0}
{"COMPOUND": "CCCCOc1nc(N)c2nc(O)n(Cc3ccc(C(C)C(=O)OC)cc3)c2n1 (stereo not drawn)", "Residual rate / %": 1}
{"COMPOUND": "COC(=O)c1cccc(CSc2nc(N)c3nc(O)n(Cc4ccccc4)c3n2)c1", "Residual rate / %": 7}
{"COMPOUND": "CCCCOc1nc(N)c2nc(O)n(Cc3ccc(CC(=O)OCCO)cc3)c2n1", "Residual rate / %": 0}
{"COMPOUND": "COC(=O)CCc1nc(N)c2nc(O)n(Cc3ccccc3)c2n1", "Residual rate / %": 0}
{"COMPOUND": "CCCCOc1nc(N)c2nc(O)n(Cc3ccc(C(=O)OC)o3)c2n1", "Residual rate / %": 11}
{"COMPOUND": "CCCCOc1nc(N)c2[nH]c(=O)n(Cc3cccc(CCC(=O)OC)c3)c2n1", "Residual rate / %": 1}
{"COMPOUND": "CCCCOc1nc(N)c2nc(O)n(Cc3ccc(C(=O)SC)nc3)c2n1", "Residual rate / %": 2}
{"COMPOUND": "CCCCOc1nc(N)c2nc(O)n(Cc3ccc(C(=O)OCc4ccccc4)cc3)c2n1", "Residual rate / %": 22}
{"COMPOUND": "CCCCOc1nc(N)c2nc(O)n(Cc3ccc(CC(=O)OCC)cc3)c2n1", "Residual rate / %": 13}

The reported measurements were obtained from patent US8148371B2.
